Could you please report measured MPL-mutCALR AUC for the items listed next?
- target.desc: T1, human mutCALR on BaF3 cells stably expressing human MPL and human mutCALR (MPL-mutCALR cells) (human)
- T1 construct: also called mutant calreticulin
- T1 chain: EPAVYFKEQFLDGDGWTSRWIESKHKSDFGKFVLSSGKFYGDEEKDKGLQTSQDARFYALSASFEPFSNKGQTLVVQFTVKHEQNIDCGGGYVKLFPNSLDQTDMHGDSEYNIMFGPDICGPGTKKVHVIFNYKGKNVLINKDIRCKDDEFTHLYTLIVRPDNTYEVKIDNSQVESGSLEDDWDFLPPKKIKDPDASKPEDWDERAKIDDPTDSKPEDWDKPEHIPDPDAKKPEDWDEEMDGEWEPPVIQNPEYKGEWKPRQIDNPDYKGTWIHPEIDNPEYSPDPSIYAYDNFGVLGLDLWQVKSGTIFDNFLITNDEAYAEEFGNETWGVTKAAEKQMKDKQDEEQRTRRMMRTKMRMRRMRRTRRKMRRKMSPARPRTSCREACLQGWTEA
- protocol.description: flow cytometry, BaF3 MPL-mutCALR cells

anti-mutCALR antibody clone 49 (antibody, human IgG1, lambda, V domains shown, human IgG1) VH: EVQLVQSGAEVKKPGSSVKVSCKASGGTFSSYAISWVRQAPGQGLEWMGGIIPIFGTANYAQKFQGRVTITADESTSTAYMELSSLRSEDTAVYYCASSPLRGSGWYWHYYYGMDVWGQGTTVTVSS VL: SYELTQPPSVSVAPGKTARITCGGNNIRAKHVHWYQQKPGQSPVLVIYQDSKRPSGIPERFSGSNSGSTATLTISRVEAGDEADYYCQVWDSSTVVFGGGTKLTVLG ... 36400
anti-mutCALR antibody clone 179 (antibody, human IgG1, lambda, N297A, V domains shown) VH: EVQLVQSGAEVKKPGASVKVSCKVSGYTLTELSMQWVRQAPGKGLEWMGGFDPDDAETMYAEKFQGRLTVTEDTSTDTVYMELSSLRSEDTAVYFCATSPGYDFFDYWGQGTLVTVSS VL: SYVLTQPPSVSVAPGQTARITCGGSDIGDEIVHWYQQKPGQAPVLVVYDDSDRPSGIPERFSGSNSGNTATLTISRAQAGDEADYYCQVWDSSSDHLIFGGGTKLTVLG ... 60200
anti-mutCALR antibody clone 140 (antibody, human IgG1, lambda, N297A, V domains shown) VH: EVQLVQSGAEVKKPGASVKVSCKVSGYTLTELSMQWVRQAPGKGLEWMGGFDPDAGETMYAEKFQGRLTVTEDTSTDTVYMELSSLRSEDTAVYFCATSPGYDFFDYWGQGTLVTVSS VL: SYVLTQPPSVSVAPGKTARITCGGDNIGSKSVHWYQQKPGQAPVLVVYDDSDRPSGIPERFSGSNSGNTATLTISRVEAGDEADYYCQVWDSSNDLLIFGGGTKLTVLG ... 54700

I would be grateful if you could provide MPL-mutCALR AUC for each of the following entries.
1. anti-mutCALR antibody clone 182 (antibody, human IgG1, lambda, N297A, V domains shown) VH: EVQLVQSGAEVKKPGASVKVSCKVSGYTLTELSMQWVRQAPGKGLEWMGGFDPDSGETMYAEKFQGRLTVTEDTSTDTVYMELRSLTSEDTALYFCATSPGYDFFDYWGQGTLVTVSS VL: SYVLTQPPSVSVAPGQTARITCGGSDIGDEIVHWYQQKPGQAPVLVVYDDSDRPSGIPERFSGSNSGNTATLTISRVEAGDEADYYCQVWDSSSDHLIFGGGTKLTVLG
2. anti-mutCALR antibody clone 27 (antibody, human IgG1, lambda, V domains shown, human IgG1) VH: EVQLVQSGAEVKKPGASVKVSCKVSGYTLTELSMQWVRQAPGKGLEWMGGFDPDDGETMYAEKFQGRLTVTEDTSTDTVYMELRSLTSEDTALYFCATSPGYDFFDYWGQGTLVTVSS VL: SYVLTQPPSVSVAPGQTARITCGGNNIGIKSVHWYQQKPGQAPVLVVYDDRDRPSGIPERFSGSNSGNTATLTINRVEAGDEADYYCQVWDSSNDLLIFGGGTKLTVLG

OUT:
1: 52100; 2: 55200

From: patent US20230272055A1
